assayed_target: human ether-à-go-go-related gene (hERG) potassium channel (human, UniProt Q12809);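 further: peak tail current of the secondary pulse compared with the same well before compound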
Sequence (Q12809 whole entry, looked up): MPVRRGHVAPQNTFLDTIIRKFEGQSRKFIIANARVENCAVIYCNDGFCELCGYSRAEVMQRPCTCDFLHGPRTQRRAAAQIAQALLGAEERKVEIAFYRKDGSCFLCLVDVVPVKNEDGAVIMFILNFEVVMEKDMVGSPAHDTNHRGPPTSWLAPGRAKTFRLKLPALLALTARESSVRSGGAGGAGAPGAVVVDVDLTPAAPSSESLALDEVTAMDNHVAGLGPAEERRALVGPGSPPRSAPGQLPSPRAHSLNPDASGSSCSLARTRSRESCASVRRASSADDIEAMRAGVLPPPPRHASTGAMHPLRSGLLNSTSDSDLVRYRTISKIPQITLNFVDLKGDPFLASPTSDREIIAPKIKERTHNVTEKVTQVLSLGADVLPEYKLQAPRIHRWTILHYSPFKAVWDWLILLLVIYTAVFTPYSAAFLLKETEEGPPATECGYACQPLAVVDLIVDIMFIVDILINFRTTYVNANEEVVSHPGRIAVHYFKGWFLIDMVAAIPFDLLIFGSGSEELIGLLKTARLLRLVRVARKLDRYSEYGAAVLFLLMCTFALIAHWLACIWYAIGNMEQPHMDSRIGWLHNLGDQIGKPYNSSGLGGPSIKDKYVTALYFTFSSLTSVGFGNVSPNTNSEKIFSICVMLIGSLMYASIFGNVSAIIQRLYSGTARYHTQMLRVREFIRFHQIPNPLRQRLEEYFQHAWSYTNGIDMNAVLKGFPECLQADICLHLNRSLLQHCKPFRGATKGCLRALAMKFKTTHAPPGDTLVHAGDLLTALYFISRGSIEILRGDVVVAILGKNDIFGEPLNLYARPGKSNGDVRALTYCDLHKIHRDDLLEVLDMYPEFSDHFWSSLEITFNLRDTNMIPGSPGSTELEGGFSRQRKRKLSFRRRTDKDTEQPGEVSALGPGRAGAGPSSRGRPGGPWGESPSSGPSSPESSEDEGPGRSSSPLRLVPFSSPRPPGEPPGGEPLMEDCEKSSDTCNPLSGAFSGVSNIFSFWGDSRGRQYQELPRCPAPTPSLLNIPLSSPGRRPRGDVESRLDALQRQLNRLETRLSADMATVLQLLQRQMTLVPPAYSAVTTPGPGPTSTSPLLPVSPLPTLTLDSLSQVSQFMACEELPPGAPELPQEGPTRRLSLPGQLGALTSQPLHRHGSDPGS
experimental_protocol: primary screen, population patch clamp on CHO cells stably expressing hERG; higher = less effect of the substance
The campaign covered roughly 310,000 compounds. About 14,000 (4.5%) showed an effect of 50% or more. The effect is printed as a negative number. Shown is part of a subset that was picked to be rich in strong results.
parameter_measured: hERG current change (%, negative = inhibition) at 10uM

INSERT INTO assay_data (compound, assayed_target, observed_value) VALUES
  ('O=c1oc2ccccc2cc1N1CCOCC1', 'human ether-à-go-go-related gene (hERG) potassium channel (human, UniProt Q12809)', '-7.08%'),
  ('Cc1cc(C)c([C@@H]2C[C@H]3CN(C4CCCC4)C(=O)[C@]34CCCN24)c(-n2cccn2)c1', 'human ether-à-go-go-related gene (hERG) potassium channel (human, UniProt Q12809)', '-80.7%'),
  ('O=C(c1ccccc1Oc1ccc(C(F)(F)F)cc1[N+](=O)[O-])N1CCOCC1', 'human ether-à-go-go-related gene (hERG) potassium channel (human, UniProt Q12809)', '1.22%'),
  ('COCCCNc1nc(-c2ccc(Cl)cc2)nc2ccccc12', 'human ether-à-go-go-related gene (hERG) potassium channel (human, UniProt Q12809)', '-1.64%'),
  ('Cn1c(Cn2c(=O)sc3ccccc32)nnc1SCc1ccc(F)cc1', 'human ether-à-go-go-related gene (hERG) potassium channel (human, UniProt Q12809)', '-21.6%'),
  ('CC1=NN(c2ccccc2)C(=O)/C1=C/c1c(O)n(-c2ccc(F)cc2)[nH]c1=O', 'human ether-à-go-go-related gene (hERG) potassium channel (human, UniProt Q12809)', '46%'),
  ('Cn1cc([C@@H]2C[C@H]3CN(C4CCCC4)C(=O)[C@]34CCCN24)c(-c2ccccc2)n1', 'human ether-à-go-go-related gene (hERG) potassium channel (human, UniProt Q12809)', '-18.5%'),
  ('CN1C[C@@H]2C[C@@H](c3ccc(C#CC(C)(C)O)s3)N3CCC[C@@]23C1=O', 'human ether-à-go-go-related gene (hERG) potassium channel (human, UniProt Q12809)', '9.88%'),
  ('CCOC(=O)C1=NN(C(=O)Cc2ccccc2)C(O)(C(C)(C)C)C1 (centres unmarked)', 'human ether-à-go-go-related gene (hERG) potassium channel (human, UniProt Q12809)', '9.74%'),
  ('COC(=O)[C@]1(C)N[C@H](c2ccc(SC3CCCCC3)c(OC)c2)[C@@H]2C(=O)N(C)C(=O)[C@@H]21.O=C(O)C(F)(F)F', 'human ether-à-go-go-related gene (hERG) potassium channel (human, UniProt Q12809)', '-16.6%'),
  ('Cc1ccc(-n2cccn2)c([C@@H]2C[C@H]3CN(C)C(=O)[C@]34CCCN24)c1', 'human ether-à-go-go-related gene (hERG) potassium channel (human, UniProt Q12809)', '-61.1%'),
  ('COCCNc1ccnc2c(Cl)cccc12', 'human ether-à-go-go-related gene (hERG) potassium channel (human, UniProt Q12809)', '-81.9%'),
  ('COc1ccc(OCCCCN2CCC(C)CC2)cc1.O=C(O)C(=O)O', 'human ether-à-go-go-related gene (hERG) potassium channel (human, UniProt Q12809)', '-29%'),
  ('COCCCNc1ccnc2c(Cl)cccc12', 'human ether-à-go-go-related gene (hERG) potassium channel (human, UniProt Q12809)', '-58.5%'),
  ('O=C(Nc1ccccc1F)C1CCN(S(=O)(=O)c2cccnc2)CC1', 'human ether-à-go-go-related gene (hERG) potassium channel (human, UniProt Q12809)', '9.24%'),
  ('Cc1ccc(OCCCCN2CCC(C)CC2)cc1.O=C(O)C(=O)O', 'human ether-à-go-go-related gene (hERG) potassium channel (human, UniProt Q12809)', '-23.4%'),
  ('COc1ccc(OC)c(NS(=O)(=O)c2ccc(-c3coc(C)n3)cc2)c1', 'human ether-à-go-go-related gene (hERG) potassium channel (human, UniProt Q12809)', '0.503%'),
  ('CC(=O)Nc1ccccc1NC(=O)C/C(C)=N/NC(=O)C(=O)N1CCCCC1', 'human ether-à-go-go-related gene (hERG) potassium channel (human, UniProt Q12809)', '-13.3%'),
  ('CC(C)(c1ccccc1)c1ccc(OCCCN2CCNCC2)cc1.O=C(O)C(=O)O', 'human ether-à-go-go-related gene (hERG) potassium channel (human, UniProt Q12809)', '3.19%'),
  ('O=P1(O)C=C(c2ccccc2)OC(c2ccccc2)=C1', 'human ether-à-go-go-related gene (hERG) potassium channel (human, UniProt Q12809)', '23.9%');

====

assayed_target: human ether-à-go-go-related gene (hERG) potassium channel (human);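 further: peak tail current of the secondary pulse compared with the same well before compound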
experimental_protocol: primary screen, population patch clamp on CHO cells stably expressing hERG; higher = less effect of the substance
Hit rate of the full screen: of about 310,000 compounds, about 14,000 (4.5%) showed an effect of 50% or more. The effect is printed as a negative number. The sample holds strong results, similar compounds and a random draw of the others, so the mix is not that of the screen.
parameter_measured: hERG current change (%, negative = inhibition) at 10uM (%)

INSERT INTO results (compound, observed_value) VALUES
  ('Cc1cc(NC(=O)c2cccc(S(=O)(=O)N3CCCCCC3)c2)n(-c2ccccn2)n1', 13.4),
  ('CSc1ccccc1OCc1cc(C(=O)N(C)C(C)c2nc(C)cs2)no1 (stereo not drawn)', -63.6),
  ('O=C(c1cc(COc2ccc(F)cc2Cl)on1)N1CC[C@@H]2CCCC[C@H]2C1', 12.6),
  ('Fc1cccc(NCCc2c[nH]c3ccccc23)n1', 11.3),
  ('O=C(c1cc(COc2ccc(F)cc2Cl)on1)N1CCCC(c2ccccc2)C1 (stereo not drawn)', -5.56),
  ('Cl.Oc1ccc(CCNc2c3ccccc3nc3ccccc23)cc1O', -68.2),
  ('CSc1ccccc1OCc1cc(C(=O)NCC(C)(C)N2CCOCC2)no1', -93),
  ('CCN(CC1CCCO1)C(=O)c1cc(COc2ccccc2SC)on1 (stereo not drawn)', -85.6),
  ('COC(=O)Cc1ccc(NC(=S)NCCO)cc1', 17.6),
  ('CCCc1c(C(=O)N/N=C/c2ccccc2OCc2ccc(F)cc2)nnn1-c1nonc1N', 18.6),
  ('CN(c1ccccc1)S(=O)(=O)c1cccc(NC(=O)CN2CCCc3ccccc32)c1', -2.81),
  ('COc1ccc(OCc2cc(C(=O)NCC(C)(C)N3CCOCC3)no2)c(Cl)c1', -31.8),
  ('COc1ccc(CCNc2nc(C)cc(C)n2)cc1OC.Cl', 17.4),
  ('CCN(CC)C1CCN(C(=O)c2cc(COc3ccc(F)cc3Cl)on2)C1 (stereo not drawn)', -70),
  ('COc1ccc(CNc2c(CO)cnc3c2cnn3C)cc1', -13),
  ('Cc1ccc(OCc2cc(C(=O)NCC(C)(C)N3CCOCC3)no2)cc1C', -45.8),
  ('Cc1ccc2c(c1)C(=C(C#N)C#N)C(=O)N2CCN1CCOCC1', -38.6),
  ('Cc1nc2scc(C)n2c(=O)c1S(=O)(=O)N1CCN(c2ccccc2)CC1', -26.3),
  ('CCN(CC1CCCO1)C(=O)c1cc(COc2ccc(F)cc2F)on1 (stereo not drawn)', -14.8),
  ('CCN(CC1CCCO1)C(=O)c1cc(COc2ccc(OC)cc2Cl)on1 (stereo not drawn)', -5.59),
  ('Cc1cn(-c2ccc(Br)cc2)[nH]c1=O', 8.3);

====

assayed_target: human ether-à-go-go-related gene (hERG) potassium channel (human, UniProt Q12809);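 further: peak tail current of the secondary pulse compared with the same well before compound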
experimental_protocol: primary screen, population patch clamp on CHO cells stably expressing hERG; higher = less effect of the substance
Screen size: about 310,000 compounds; about 14,000 (4.5%) showed an effect of 50% or more. Effects have a minus sign here. What follows is part of a selection rich in strong results, with near analogues and random picks from the rest.
Reported hERG current change (%, negative = inhibition) at 10uM is given for each of the following compounds.
parameter_measured: hERG current change (%, negative = inhibition) at 10uM (%)

INSERT INTO assay_data (compound, u, observed_value) VALUES
  ('COc1ccc(C(=O)CSc2nnc(CN3CCCCC3)n2-c2ccc(F)cc2)cc1OC', '%', 6.33),
  ('O=C(CN1CCN(c2ccccc2F)CC1)c1ccc2c(c1)OCO2', '%', -10.3),
  ('CC(C)(C)NC(=O)CCC1COc2ccccc2O1 (stereo not drawn)', '%', -4.27),
  ('COc1ccc(C(=O)CSc2nnc(CN3CCCC3)n2-c2ccc(F)cc2)c(OC)c1', '%', -23),
  ('Cc1ccccc1OCc1nnc(SCC(=O)O)n1-c1ccccc1', '%', 14.4),
  ('COc1ccc2[nH]c(=O)c(CN(CCN(C)C)C(=O)NCc3ccccc3)cc2c1', '%', 9.31),
  ('COc1ccc(C(=O)CCN2CCN(c3ccccc3OC)CC2)cc1.Cl', '%', -50.3),
  ('CCOC(=O)CN1C(=O)CSc2ccccc21', '%', 0.699),
  ('Cn1c(CNc2ccc(Cl)cc2)nnc1SCCN1CCCCC1', '%', -46.4),
  ('Fc1ccccc1Nc1nc(NCc2ccco2)nc(N2CCOCC2)n1', '%', -15.8),
  ('COc1ccccc1NC(=O)c1cc(OC)c(OC)cc1[N+](=O)[O-]', '%', 4.44),
  ('O=C(CN1CCN(c2ccccc2F)CC1)c1ccc2cc[nH]c2c1', '%', -82.9),
  ('Cc1cc(C(=O)NCC(=O)OCC(=O)NCC2CCCO2)ccc1[N+](=O)[O-] (stereo not drawn)', '%', 15.3),
  ('NC(=O)C1CCN(/C=C2\C(=O)NC(=O)N(Cc3ccco3)C2=O)CC1', '%', 6.74),
  ('Cc1cc(C)c2cc(CN(CCCN(C)C)C(=S)NCc3ccccc3)c(=O)[nH]c2c1', '%', -45.4),
  ('COc1ccc(-n2c(CNc3ccc(C)cc3)nnc2SCc2ccccc2)cc1', '%', -7.09),
  ('Cc1ccccc1OCc1nnc(SCCN2CCCC2)n1-c1ccccc1.Cl', '%', -65.3),
  ('O=C(CN1CCN(c2ccccc2)CC1)c1ccc2cc[nH]c2c1', '%', 11.4),
  ('Cc1cc(C)cc(NC(=O)C(OC(=O)c2ccc(NC(=O)CC#N)cc2)c2ccccc2)c1 (stereo not drawn)', '%', -6.68),
  ('O=C(CN1CCN(c2ccccc2F)CC1)c1ccc(O)c(O)c1', '%', -70.7),
  ('O=C(CN1CCN(c2ccccc2F)CC1)c1ccc(O)cc1O', '%', 14.2);
